Test: probe aXIP binding to arrayed compounds – biochemical, NeuroSMM set, 635/667 nm fluorescence, primary screen (AID 1119);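 note: probe is the protein aXip251-270 applied at 1 µg/mL to compound-printed slides; binding of probe to printed compounds measured as 667 nm fluorescence plus signal to noise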
Test Settings: small-molecule microarray, higher = more signal, called active from +8 up or from −8 down
The source made the active and inactive calls.
Value Type: composite Z-score

{"columns": ["Molecule", "Value Type", "Result"],
 "data": [
  ["COc1ccc([Si](C)(C)[C@H]2[C@H](CC(=O)N3Cc4ccccc4C[C@H]3CO)O[C@@]3(C(=O)N(c4ccccc4)c4ccccc43)[C@@H]2C)cc1", "composite Z-score", "0.319 (inactive)"],
  ["CC(C)(C)N1CC=CC23O[C@@H]4C=CCCOC(=O)C4[C@H]2C(=O)N(CCCCCCO)[C@@H]3C1=O (some centres not stated)", "composite Z-score", "-0.192 (inactive)"],
  ["CN1C(=O)[C@@H]2[C@@H](CC(COc3ccccc3)=C3[C@@H](CCc4ccccc4)OB(O)C[C@@H]32)C1=O", "composite Z-score", "0.581 (inactive)"],
  ["C=C(CCCC)/C(=C/C[C@H](OC(C)=O)c1cccc(OCCO)c1)c1cnc2ccccc2c1", "composite Z-score", "-0.325 (inactive)"],
  ["[N-]=[N+]=NCc1ccccc1[C@@H]1OC(c2ccc(OCCCO)cc2)=N[C@]1(Cc1ccccc1N=[N+]=[N-])C(=O)O", "composite Z-score", "-0.164 (inactive)"],
  ["CC1=C([C@H](O)CCc2ccccc2)[C@H](CO)n2c(=O)n(-c3ccccc3)c(=O)n2C1", "composite Z-score", "0.51 (inactive)"],
  ["NC(=O)NCC#Cc1ccc2c(c1)[C@]1(C(=O)N2)[C@H](c2ccc(OCCO)cc2)N2[C@H](c3ccccc3)[C@H](c3ccccc3)OC(=O)[C@H]2[C@@H]1C(=O)NC[C@H](O)c1ccccc1", "composite Z-score", "0.691 (inactive)"]
]}

All figures here come from PubChem BioAssay.
